B1: library; numbered along this chain (parent)
chain: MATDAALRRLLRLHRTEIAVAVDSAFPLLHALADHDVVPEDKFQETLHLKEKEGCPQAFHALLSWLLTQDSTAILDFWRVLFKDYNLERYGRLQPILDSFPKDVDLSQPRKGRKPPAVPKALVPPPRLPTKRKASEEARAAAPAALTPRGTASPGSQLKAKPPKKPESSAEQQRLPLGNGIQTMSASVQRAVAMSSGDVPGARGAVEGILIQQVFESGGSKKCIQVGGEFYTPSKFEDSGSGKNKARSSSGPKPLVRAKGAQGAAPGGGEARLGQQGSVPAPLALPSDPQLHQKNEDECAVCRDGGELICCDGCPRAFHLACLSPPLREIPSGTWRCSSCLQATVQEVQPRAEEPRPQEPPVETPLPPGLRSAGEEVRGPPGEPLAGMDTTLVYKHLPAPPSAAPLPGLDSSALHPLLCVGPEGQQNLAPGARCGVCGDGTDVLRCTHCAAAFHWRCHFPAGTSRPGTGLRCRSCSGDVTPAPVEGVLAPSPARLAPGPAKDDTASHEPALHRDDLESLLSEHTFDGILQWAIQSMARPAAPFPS

Variants of: B1
Assay: AIRE transcriptional activation functional score (insulin promoter-GFP; nonsense median 0, synonymous median 1) (normalised score); higher = higher AIRE activity (more reporter activation)
Conditions: with insulin promoter-GFP reporter in HEK293
metric: AIRE transcriptional activation functional score
Please reply with the value in numeric form only.

Sample records with AIRE transcriptional activation functional score:
mutant_code	val
W531I	0.285
A321T	0.918

Give the measured AIRE transcriptional activation functional score of P326E .
0.653

Would you kindly share the measured AIRE transcriptional activation functional score for L13N ?
-0.209

# query: AIRE transcriptional activation functional score of entry R247F
0.902

Fill in the blank: the reported AIRE transcriptional activation functional score of S250C is ____.
1.23
